Ok so here's the combined literature set: IC50 for BTK (Homo sapiens, UniProt Q06187).

Given CCC(=O)Nc1ccc(Oc2ccnc3cc(-c4ccccc4)oc23)cc1 , state its recorded IC50.
3000 to 50000 nM

Another compound to check: C=CC(=O)Nc1ccc(Oc2ccnc3cc(-c4ccccc4)oc23)cc1
300 to 3000 nM

Same lookup for C=CC(=O)N1CCC(n2nc(-c3ccc(Oc4cc(F)cc(OCc5cnc(C)nc5)c4)cc3)c3c(N)ncnc32)CC1 , please.
17 nM

Query C=CC(=O)N1CCC(Cn2cc(-c3ccc(Oc4ccccc4)cc3)c3c(N)n[nH]c(=O)c32)CC1 next
10 to 1000 nM

What do we get for COCCn1cc(Nc2nccc(-c3ccc4c(c3)CCCC[C@H]4NC(=O)N3CC(OC(C)(C)C)C3)n2)cn1 ?
< 10 nM

Continuing:
I would be grateful if you could share the reported IC50 for O=C(CNc1cc(Cl)cc(Cl)c1)N1CCC(c2ccccc2)C(Nc2ncnc3[nH]ccc23)C1 (centres unmarked) .
> 10000 nM

Next compound up: Cc1cc(-c2cc(Nc3cc4n(n3)CCN(C)C4C)ncn2)ccc1CNC(=O)N1CCC(C(C)(C)C)C1 (centres unmarked)
< 10 nM

Item: O=C(c1cccc(O)c1)c1c[nH]c2nccc(Cl)c12
≤ 10000 nM

====

This section presents IC50 values reported for BTK (Homo sapiens, UniProt Q06187) in the literature.

Previously resolved entries follow.
GET /values?readout=IC50&item= CN1CCN(C(=O)c2cnc3[nH]ccc3c2N[C@@H]2CCCN(C(=O)CNc3cc(Cl)cc(Cl)c3)C2)CC1
100 to 999 nM

Repeat for the following molecule: COc1ncc(-c2cnc3[nH]cc(C(=O)c4c(F)ccc(NS(=O)(=O)c5ccc(F)cc5F)c4F)c3c2)cn1
≤ 10000 nM

Try CC#CC(=O)N[C@H]1C[C@H](F)CN(c2c(F)cc(C(N)=O)c3[nH]c4c(c23)CC2(CC4)CC2)C1 next.
< 10 nM

Next:
// IC50 lookup, key: C[C@@H]1CN(c2nc(-c3cnn(C)c3)cn3nccc23)CC[C@@H]1CNC(=O)c1noc(C2(C)CC2)n1 (single isomer, unassigned)
1 to 10 nM

Now consider CS(=O)(=O)c1cccc(-c2cnc3[nH]cc(C(O)c4c(F)ccc(F)c4F)c3c2)c1 (stereo not drawn) .
≤ 10000 nM

Try the molecule Cc1ccc2c(N)c(C(N)=O)nnc2c1-c1ccc2nncn2c1
100 nM

Now consider NC(=O)c1cccc(NCC(=O)N[C@@H]2CCCN(c3ncnc4[nH]ccc34)C2)c1 .
1000 to 10000 nM

What do you have for Cc1cc(-c2ccnc(Nc3cnn(C4CCN(C)CC4)c3)n2)ccc1CNC(=O)c1cnc(C(C)(C)C)s1 ?
< 10 nM

Next: CN(C)C/C=C/C(=O)N(C)c1cccc(-n2c(=O)n(-c3ccc(C(=O)Nc4ccccn4)cc3)c3c(N)ncnc32)c1
< 100 nM

====

Listed below are compounds with pIC50 for BTK (Homo sapiens, UniProt Q06187), each taken from published literature.
pIC50: −log10 of the molar value.

Before answering, review these 7 worked examples.
Any idea what its pIC50 is? The compound is Cc1nc(C)c(COc2ccc(F)c(C(=O)c3c[nH]c4ncc(Cl)cc34)c2F)s1
≥ 5.00

Field entry: Cc1cc(-c2ncnc3[nH]ccc23)ccc1C(C)NC(=O)c1cc2c(s1)CCCC2 (centres unmarked)
> 8.00

Do the same for C=CC(=O)Nc1cccc(Oc2c(Cl)cnc3[nH]c(-c4ccc(C(=O)O)cc4)nc23)c1 please
6.00 to 7.00

Also check CC#CC(=O)N1CC[C@@H](n2cc(-c3ccc(Oc4ccccc4F)cc3)c3c(N)n[nH]c(=O)c32)C1
6.00 to 8.00

And what about the compound CNC(=O)C(C)(C)n1cc(Nc2nccc(-c3ccc(CNC(=O)N4CC(OC(C)C)C4)c(C)c3)n2)cn1 ?
> 8.00

Lookup C=CC(=O)N1CCN(c2ccc(C(N)=O)c(-c3ccc(Oc4ccc(F)cc4)cc3)n2)CC1
> 6.30

Check CCn1cc(Nc2nccc(-c3ccc4c(c3)CCCCC4NC(=O)N3CC(OC(C)C)C3)n2)cn1 (centres unmarked) too.
> 8.00

Next, consider the following compound.
Recorded pIC50 of C=CC(=O)Nc1cccc(Oc2c(Cl)cnc3[nH]c(-c4ccc(CN(C)CC)cc4)nc23)c1 , please.
≥ 7.30
